Source listed as PubChem BioAssay AID256.

# Tested on: CD2F1 mice, L1210 leukemia ip, survival T/C
# ASSAY_INFO: NCI In Vivo Anticancer Drug Screen. Data for tumor model L1210 Leukemia (intraperitoneal) in CD2F1 (CDF1) mice
# CONDITION_INFO: endpoint: mean survival time; dose: 200.0 mg/kg/injection; schedule: Q04DX003 (ip); vehicle: saline with Tween-80; higher = longer survival
Inconclusive results and toxic doses are left out.
Provide the reported T/C of each item.

Lookup: What value of measured T/C is listed for COc1ccc(C(O)(c2ccccc2)C(C)O)cc1 (stereo not given) ?
Found: 98 % of control

Lookup: What value of measured T/C is listed for Cc1ccc(C(C)C)cc1NC(=O)c1ccccc1C(=O)O ?
Found: 95 % of control

Lookup: What value of measured T/C is listed for COc1cc(/C=C(\C#N)c2ccc(Cl)cc2)ccc1OCc1ccccc1 ?
Found: 89 % of control

Lookup: What value of measured T/C is listed for COc1ccc(C2CCc3cc4c(cc3C2=O)OCO4)cc1OC (stereo not given) ?
Found: 96 % of control

Lookup: What value of measured T/C is listed for CC(C)(Nc1ccccc1)c1cccs1 ?
Found: 97 % of control

Lookup: What value of measured T/C is listed for COC(=O)CC(C)Cc1ccc(OC)c(OC)c1 (stereo not given) ?
Found: 100 % of control

Lookup: What value of measured T/C is listed for CC(=O)N(c1c(F)c(F)cc(F)c1F)c1c(F)c(F)cc(F)c1F ?
Found: 102 % of control

Lookup: What value of measured T/C is listed for CCN(CC)c1cc(Nc2c3ccc(Cl)cc3nc3cc(Cl)ccc23)ccc1O ?
Found: 100 % of control

Lookup: What value of measured T/C is listed for Cc1nc2ccccc2c(=O)n1-c1ccccc1Cl ?
Found: 102 % of control

Lookup: What value of measured T/C is listed for C1=CCOCOC1 ?
Found: 118 % of control

Lookup: What value of measured T/C is listed for OCC(O)C1OC(SCc2ccccc2)C(O)C(O)C1O (stereo not given) ?
Found: 100 % of control

Lookup: What value of measured T/C is listed for O=C(c1ccc([N+](=O)[O-])cc1)C(Br)C(Br)c1ccncc1 (stereo not given) ?
Found: 97 % of control

Lookup: What value of measured T/C is listed for Cc1cc(O)c(C(C)C)cc1N=O ?
Found: 100 % of control

Lookup: What value of measured T/C is listed for CC(=O)c1cccc(NS(=O)(=O)c2ccc(C)cc2)c1 ?
Found: 99 % of control

Lookup: What value of measured T/C is listed for CC(C)(C)C1CCC(O)(CSc2ccccc2)CC1 (stereo not given) ?
Found: 92 % of control

---

# Tested on: CD2F1 mice, L1210 leukemia ip, survival T/C
# ASSAY_INFO: NCI In Vivo Anticancer Drug Screen. Data for tumor model L1210 Leukemia (intraperitoneal) in CD2F1 (CDF1) mice
# CONDITION_INFO: endpoint: mean survival time; dose: 400.0 mg/kg/injection; schedule: Q01DX009 (ip); vehicle: saline; higher = longer survival
Inconclusive results and toxic doses are left out.
PROPERTY_LABEL: T/C

Lookup: What value of measured T/C is listed for CCCN(CCC)C(=O)c1cccnc1 ?
Found: 97 % of control

Lookup: What value of measured T/C is listed for Cc1ccc(C(=O)c2ccc(C)cc2)cc1 ?
Found: 93 % of control

Lookup: What value of measured T/C is listed for CC(S)CN (stereo unspecified) ?
Found: 101 % of control

Lookup: What value of measured T/C is listed for Cc1noc(C)c1CO ?
Found: 101 % of control

Lookup: What value of measured T/C is listed for Nc1cc(S(=O)(=O)O)cc2ccc(S(=O)(=O)O)cc12 ?
Found: 92 % of control

Lookup: What value of measured T/C is listed for O=C1CCC(=O)N1CO ?
Found: 111 % of control

Lookup: What value of measured T/C is listed for COC(=O)C/C(=C/C=C1/C(=O)ON=C1C)c1c(C)[nH]oc1=O ?
Found: 87 % of control

Lookup: What value of measured T/C is listed for O=C(O)C(=Cc1ccnc2ccccc12)C(=O)O ?
Found: 111 % of control

Lookup: What value of measured T/C is listed for O=[N+]([O-])CC(O)C(O)C(O)C(O)CO (stereo unspecified) ?
Found: 107 % of control

Lookup: What value of measured T/C is listed for NC(CSC1(c2cccc3ccccc23)c2ccccc2-c2ccccc21)C(=O)O (stereo unspecified) ?
Found: 94 % of control

Lookup: What value of measured T/C is listed for CC1(C)N=C(N)N=C(N)N1c1cccc(CCC(=O)Nc2ccc(S(=O)(=O)F)cc2)c1 ?
Found: 108 % of control
